Data provenance: patent US20240294566A1

pIC50: −log10 of the molar value.
Consider the following pIC50 values measured on ERβ (Homo sapiens, UniProt Q92731).
measure: pIC50

CCOC(=O)[C@H]1C[C@H]2[C@@H]3CCc4cc(O)ccc4[C@H]3CC[C@]2(C)[C@H]1O :: 7.00
CCOC(=O)[C@@H]1C[C@H]2[C@@H]3CCc4cc(O)ccc4[C@H]3CC[C@]2(C)[C@H]1O [Structure 3′, reference compound] :: 6.85

---

Molecular target: ERα (Homo sapiens, UniProt P03372)
Assay: Binding assay, inhibition of [3H] estradiol binding to hER
Details: FIG. 2
Sequence (P03372 whole entry): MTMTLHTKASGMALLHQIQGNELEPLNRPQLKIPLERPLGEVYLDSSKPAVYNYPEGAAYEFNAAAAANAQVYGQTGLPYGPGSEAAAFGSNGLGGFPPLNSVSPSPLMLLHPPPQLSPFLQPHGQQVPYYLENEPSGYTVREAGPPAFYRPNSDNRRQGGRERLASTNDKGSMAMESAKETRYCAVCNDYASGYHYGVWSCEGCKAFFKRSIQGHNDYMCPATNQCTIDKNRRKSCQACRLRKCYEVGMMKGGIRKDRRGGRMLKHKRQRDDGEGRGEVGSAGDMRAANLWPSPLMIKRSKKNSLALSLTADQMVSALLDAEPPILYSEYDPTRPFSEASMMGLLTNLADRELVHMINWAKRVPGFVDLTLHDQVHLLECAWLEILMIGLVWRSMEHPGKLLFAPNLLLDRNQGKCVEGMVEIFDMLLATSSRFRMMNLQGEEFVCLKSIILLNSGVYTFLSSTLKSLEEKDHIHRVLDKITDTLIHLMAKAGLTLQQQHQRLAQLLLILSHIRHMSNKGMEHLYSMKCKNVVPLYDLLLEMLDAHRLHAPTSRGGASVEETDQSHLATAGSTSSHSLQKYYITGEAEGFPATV
measure: IC50 (nM)
Give a bare numeral; the unit nM is implied.

query: Entry under review: CCOC(=O)[C@H]1C[C@H]2[C@@H]3CCc4cc(O)ccc4[C@H]3CC[C@]2(C)[C@H]1O [Structure 3] . Reported IC50?
result: 78

---

Biological target: UniProt:Q92731
Assay: Homogeneous in vitro functional assay, coactivator recruitment (FRET)
Assay type: biochemical
Details: functional coactivator recruitment FRET assay, FIG. 1
Sequence (Q92731 264-498 limits assumed): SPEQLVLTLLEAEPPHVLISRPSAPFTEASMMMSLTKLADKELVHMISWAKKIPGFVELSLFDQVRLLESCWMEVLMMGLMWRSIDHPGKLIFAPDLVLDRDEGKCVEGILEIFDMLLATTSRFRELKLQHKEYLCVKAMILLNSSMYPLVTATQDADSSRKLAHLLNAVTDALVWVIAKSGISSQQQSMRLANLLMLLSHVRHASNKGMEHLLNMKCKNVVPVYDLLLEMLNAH
measure: EC50

query: Entry under review: COC(=O)CC[C@H]1C[C@H]2[C@@H]3CCc4cc(O)ccc4[C@H]3CC[C@]2(C)[C@H]1O . Reported EC50?
result: ~10 µM

---

Biological target: ERα (Homo sapiens, UniProt P03372)
Assay: Homogeneous in vitro functional assay, coactivator recruitment (FRET)
Format: biochemical
Conditions: FIG. 1
Sequence (P03372 311-547 limits assumed): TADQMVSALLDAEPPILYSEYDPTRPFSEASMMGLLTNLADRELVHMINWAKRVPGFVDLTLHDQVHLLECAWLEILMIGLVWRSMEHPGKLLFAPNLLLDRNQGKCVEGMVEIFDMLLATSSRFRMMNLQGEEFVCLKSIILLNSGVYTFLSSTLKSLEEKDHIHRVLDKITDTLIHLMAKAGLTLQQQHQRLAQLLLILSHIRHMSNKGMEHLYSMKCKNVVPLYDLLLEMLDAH
measure: EC50

query: Enter reported EC50 observed with ERα (Homo sapiens, UniProt P03372) for COC(=O)CC[C@H]1C[C@H]2[C@@H]3CCc4cc(O)ccc4[C@H]3CC[C@]2(C)[C@H]1O [Compound 15]
result: > 100 µM
